Taken from the supplement of paper PMC9233669.

- Test system: biotinyl-Leu-oxazolone
- assay_info: self-aminoacylation, catalytic enhancement (BLO) (fold over background); higher = more active; k-Seq, kA / k0A0; sequences stand for … in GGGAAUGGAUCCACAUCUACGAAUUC…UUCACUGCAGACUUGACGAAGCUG
Variants at the floor of the assay were thinned out.
value_type: self-aminoacylation
Just the number, please.

Ask: Give the measured self-aminoacylation of AAGCUUGCUAAUAGUAGCAAG [Fam3.1 aminoacylation ribozyme variant] .
Reply: 1.55

Ask: Same for CUACUUCUAACGAUCGGUCUG [Fam1A.1 aminoacylation ribozyme variant]
Reply: 0.622

Ask: Same for CUACUUGAAACAAUCUGUCUG [Fam1A.1 aminoacylation ribozyme variant]
Reply: 0.636

Ask: Same for GACUUUGCUAAUAGUCGCAAG [Fam3.1 aminoacylation ribozyme variant]
Reply: 1.85

====

- Tested on: biotinyl-Met-oxazolone
- assay_info: self-aminoacylation, catalytic enhancement (BMO) (fold over background); higher = more active; k-Seq, kA / k0A0; sequences stand for … in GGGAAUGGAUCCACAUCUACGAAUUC…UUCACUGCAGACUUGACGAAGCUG
This sample holds only a part of the variants without activity.
self-aminoacylation of 1 or higher: YES. Under 1: NO.

Ask: State whether the measured self-aminoacylation reaches 1, counting equality as reaching it, for AUUGCCCUGGUUAUCGAGUGA [Fam2.1 aminoacylation ribozyme variant]
Reply: YES

Ask: Same for AUUACCCGGGUUAUCGAGUGA [Fam2.1 aminoacylation ribozyme variant]
Reply: YES

Ask: Same for CCACAAUUAAAGCAAUCGGUC [Fam1B.1 aminoacylation ribozyme variant]
Reply: NO

Ask: Same for CAGUUUGAUAAUAGUCGCAAG [Fam3.1 aminoacylation ribozyme variant]
Reply: YES

Ask: Same for AAGUUUGCUAAAAGUCGCUAG [Fam3.1 aminoacylation ribozyme variant]
Reply: NO

Ask: Same for AAGUUUGCUAAUAGUGGCAAA [Fam3.1 aminoacylation ribozyme variant]
Reply: NO

Ask: Same for AUUACCAUGGUGAUCGAGUGA [Fam2.1 aminoacylation ribozyme variant]
Reply: YES

Ask: Same for AUUACCCUGGUCACCGAGUGG [Fam2.1 aminoacylation ribozyme variant]
Reply: YES

Ask: Same for ACCCACUUCAAGCAAUCGGUC [Fam1B.1 aminoacylation ribozyme variant]
Reply: YES

Ask: Same for AUUCACCUGGGUCAUCGGGAG [Fam2.2 aminoacylation ribozyme variant]
Reply: YES

Ask: Same for AAGUUUGCUAAUAGUCGAAUG [Fam3.1 aminoacylation ribozyme variant]
Reply: YES

Ask: Same for AAGUUCGCUACUAGUCGCAAG [Fam3.1 aminoacylation ribozyme variant]
Reply: YES

Ask: Same for AAUCACCUAGGUCAUCGGCUG [Fam2.2 aminoacylation ribozyme variant]
Reply: YES

Ask: Same for CUACUAGAAACAAUCGGUCUG [Fam1A.1 aminoacylation ribozyme variant]
Reply: NO

Ask: Same for AAGUUGGCUAAUACUCGCAAG [Fam3.1 aminoacylation ribozyme variant]
Reply: YES

Ask: Same for CCACUCUUCGAGCAAUCGGUC [Fam1B.1 aminoacylation ribozyme variant]
Reply: YES

Ask: Same for AUAACCCUGGUCAUCGAGUGA [Fam2.1 aminoacylation ribozyme variant]
Reply: YES

Ask: Same for CUACUUUAUACAAUCGGUCUG [Fam1A.1 aminoacylation ribozyme variant]
Reply: NO

====

- System: biotinyl-Ile-oxazolone
- assay_info: self-aminoacylation, catalytic enhancement (BIO) (fold over background); higher = more active; k-Seq, kA / k0A0; sequences stand for … in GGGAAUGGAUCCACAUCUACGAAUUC…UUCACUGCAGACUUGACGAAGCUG
Fewer inactive variants are shown than the library holds.
Please respond with reported self-aminoacylation for every item in the list.

Ask: Give the measured self-aminoacylation of AAGUUUGCUAAGAGUCGGAAG [Fam3.1 aminoacylation ribozyme variant] .
Reply: 0.879

Ask: Same for AUUACCCUGGUGAUCGAUUGA [Fam2.1 aminoacylation ribozyme variant]
Reply: 1.03

Ask: Same for AUCCACCUAGGUCAUCGGGGG [Fam2.2 aminoacylation ribozyme variant]
Reply: 4.14

Ask: Same for CUACUUCCAACAAUCGGUCUG [Fam1A.1 aminoacylation ribozyme variant]
Reply: 0.766

Ask: Same for CAUCACUUCAAGCAAUCGGUC [Fam1B.1 aminoacylation ribozyme variant]
Reply: 1.17

Ask: Same for CUACUUCAAAAAAUCAGUCUG [Fam1A.1 aminoacylation ribozyme variant]
Reply: 0.841

Ask: Same for CUACUUCUAAUAAUCGGUCUG [Fam1A.1 aminoacylation ribozyme variant]
Reply: 0.776

Ask: Same for CUACUUCAAACAAUCCGUCCG [Fam1A.1 aminoacylation ribozyme variant]
Reply: 0.825

Ask: Same for AUUACCCUAGUCAUCUAGUGA [Fam2.1 aminoacylation ribozyme variant]
Reply: 3.37

Ask: Same for AUUCACCUUGGACAUCGGGUG [Fam2.2 aminoacylation ribozyme variant]
Reply: 2.51

Ask: Same for CCACACCUCAAGCCAUCGGUC [Fam1B.1 aminoacylation ribozyme variant]
Reply: 1.27

Ask: Same for CCACACUUCGAGCAUUCGGUC [Fam1B.1 aminoacylation ribozyme variant]
Reply: 1.97

Ask: Same for AUCACCCUGGUCAGCGAGUGA [Fam2.1 aminoacylation ribozyme variant]
Reply: 4.13

Ask: Same for GUGCACCUAGGUCAUCGGGUG [Fam2.2 aminoacylation ribozyme variant]
Reply: 3.96

Ask: Same for UCUCACCUAGGUCAUCGGGUG [Fam2.2 aminoacylation ribozyme variant]
Reply: 2.33

Ask: Same for CUAUUUCAAACAAUGGGUCUG [Fam1A.1 aminoacylation ribozyme variant]
Reply: 0.924

Ask: Same for CUAGUUCAAACAAUGGGUCUG [Fam1A.1 aminoacylation ribozyme variant]
Reply: 1.14

Ask: Same for AUUCCCCUGGUCACCGAGUGA [Fam2.1 aminoacylation ribozyme variant]
Reply: 5.93

====

- Test system: biotinyl-Phe-oxazolone
- assay_info: self-aminoacylation, catalytic enhancement (BFO) (fold over background); higher = more active; k-Seq, kA / k0A0; sequences stand for … in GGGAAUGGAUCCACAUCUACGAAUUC…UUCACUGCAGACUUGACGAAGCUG
Fewer inactive variants are shown than the library holds.
// bucketize self-aminoacylation: low-valued: < 1; mid-valued: ≥ 1 and < 10; high-valued: ≥ 10

Ask: Kindly identify the class of AUCACACUGGUCAUCGAGUGA [Fam2.1 aminoacylation ribozyme variant] .
Reply: high-valued

Ask: Same for CCACUCUUCAAGCAGUCGGUC [Fam1B.1 aminoacylation ribozyme variant]
Reply: mid-valued

Ask: Same for CAACUUCAAAUAAUCGGUCUG [Fam1A.1 aminoacylation ribozyme variant]
Reply: high-valued

Ask: Same for CUACUUAAAACAAUCGGUCGG [Fam1A.1 aminoacylation ribozyme variant]
Reply: low-valued

Ask: Same for GUUCACCUAUGUCAUCGGGUG [Fam2.2 aminoacylation ribozyme variant]
Reply: high-valued

Ask: Same for AUUACCCUGGUCAUCUCGUGA [Fam2.1 aminoacylation ribozyme variant]
Reply: high-valued

Ask: Same for AUUACCCUGCUCAUCGAGCGA [Fam2.1 aminoacylation ribozyme variant]
Reply: low-valued

Ask: Same for CUACUUCAAACAAUCAGGCUG [Fam1A.1 aminoacylation ribozyme variant]
Reply: mid-valued

Ask: Same for CCACACUUCAAGCAAUCCCUC [Fam1B.1 aminoacylation ribozyme variant]
Reply: low-valued

Ask: Same for CCACACAUCAAGCAAUCGUUC [Fam1B.1 aminoacylation ribozyme variant]
Reply: low-valued

Ask: Same for AUUCACCUAGGUCUCCGGGUG [Fam2.2 aminoacylation ribozyme variant]
Reply: high-valued

Ask: Same for AAGCUUGCUAAUACUCGCAAG [Fam3.1 aminoacylation ribozyme variant]
Reply: mid-valued

Ask: Same for AUUGACCUCGGUCAUCGGGUG [Fam2.2 aminoacylation ribozyme variant]
Reply: high-valued

Ask: Same for AAGUUAGCAAAUAGUCGCAAG [Fam3.1 aminoacylation ribozyme variant]
Reply: mid-valued

Ask: Same for CUACUUCAAACAAUCGGUCAA [Fam1A.1 aminoacylation ribozyme variant]
Reply: mid-valued

Ask: Same for UUUACCCUGCUCAUCGAGUGA [Fam2.1 aminoacylation ribozyme variant]
Reply: mid-valued

Ask: Same for AUAACCCUGGUCAUCGAGUGA [Fam2.1 aminoacylation ribozyme variant]
Reply: high-valued

Ask: Same for CAACACUUCAAGCCAUCGGUC [Fam1B.1 aminoacylation ribozyme variant]
Reply: mid-valued

Ask: Same for CCACACUACAAGCAAUCGCUC [Fam1B.1 aminoacylation ribozyme variant]
Reply: mid-valued

Ask: Same for CCACACCUCAAGCAAUCGAUC [Fam1B.1 aminoacylation ribozyme variant]
Reply: low-valued

Ask: Same for AUUACCCUGAUCAUUGAGUGA [Fam2.1 aminoacylation ribozyme variant]
Reply: high-valued

Ask: Same for AUUACCCUGAUCAUCGAGUGG [Fam2.1 aminoacylation ribozyme variant]
Reply: mid-valued

Ask: Same for AUUACCACGGUCAUCGAGUGA [Fam2.1 aminoacylation ribozyme variant]
Reply: high-valued

Ask: Same for AUUCAACUAGGUCAUCGGGUC [Fam2.2 aminoacylation ribozyme variant]
Reply: mid-valued

Ask: Same for AAGUUUGCUGAUACUCGCAAG [Fam3.1 aminoacylation ribozyme variant]
Reply: low-valued

Ask: Same for CGGUUUGCUAAUAGUCGCAAG [Fam3.1 aminoacylation ribozyme variant]
Reply: mid-valued

Ask: Same for CUACCUCAAACAAUUGGUCUG [Fam1A.1 aminoacylation ribozyme variant]
Reply: low-valued

Ask: Same for UAGUUUGCUAAUAGUCGGAAG [Fam3.1 aminoacylation ribozyme variant]
Reply: mid-valued

Ask: Same for CUACACUUCAAGCAAUCGGUC [Fam1B.1 aminoacylation ribozyme variant]
Reply: high-valued

Ask: Same for GUUCAGCUAGGUCAUCGGGUG [Fam2.2 aminoacylation ribozyme variant]
Reply: high-valued

Ask: Same for AUUACCCUCGUCAUCGCGUGA [Fam2.1 aminoacylation ribozyme variant]
Reply: high-valued

Ask: Same for CUACUUCAAACAAUCGGUUUC [Fam1A.1 aminoacylation ribozyme variant]
Reply: mid-valued

Ask: Same for AAUUUUGCUAAUAGUCACAAG [Fam3.1 aminoacylation ribozyme variant]
Reply: mid-valued

Ask: Same for ACCUUUGCUAAUAGUCGCAAG [Fam3.1 aminoacylation ribozyme variant]
Reply: mid-valued
